- Tested on: MCF7;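 note: secreted proteins added to cultured cells, EdU pulse at the end, nuclei found by Hoechst imaging, EdU status from nuclear versus surrounding ring intensity ratio, PBS as neutral control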
- assay protocol: percentage of EdU-negative (G0-arrested) nuclei per well, 72 h; higher = more G0 arrest
- particulars: protein concentration 0.225 µM; reference: sequence is the full UniProt precursor, the tested protein was the secreted form or ectodomain
attribute measured: percentage of EdU-negative (%)
I only need the number, in %, no unit after it.

For this sequence ( MEIVWEVLFLLQANFIVCISAQQNSPKIHEGWWAYKEVVQGSFVPVPSFWGLVNSAWNLCSVGKRQSPVNIETSHMIFDPFLTPLRINTGGRKVSGTMYNTGRHVSLRLDKEHLVNISGGPMTYSHRLEEIRLHFGSEDSQGSEHLLNGQAFSGEVQLIHYNHELYTNVTEAAKSPNGLVVVSIFIKVSDSSNPFLNRMLNRDTITRITYKNDAYLLQGLNIEELYPETSSFITYDGSMTIPPCYETASWIIMNKPVYITRMQMHSLRLLSQNQPSQIFLSMSDNFRPVQPLNNRCIRTNINFSLQGKDCPNNRAQKLQYRVNEWLLK [Q9NS85] ), measured percentage of EdU-negative is 27.9
